B1: CLCN6 (parent)
chain: ILRSQLVTLLVRGVCYSESQSSAS

variants of: B1; test: protein stability index of a GFP-peptide fusion (GPS, HEK-293T) (PSI 1-6); higher = more stable; details: c terminus: a fixed tail appended;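 note: lentivirally expressed fusions sorted by FACS into six bins by GFP to DsRed ratio, PSI derived from sequencing read proportions per bin multiplied by bin number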
// protein stability index lookup, one value per entry
Please give only the number in your answer, with no unit.

- sequence variant: "V7P"
  protein stability index: 1.98

Read the next record carefully.
Look up and report measured protein stability index for this entry: V11R
2.01
